biological target: RPL19; assay: pooled miR-30 sensor sort-seq; sequence = guide strand; conditions: shRNA; note: reference of the scale not given here
sensor-assay potency score (higher = more potent) below 0.2 gives 0 (no); sensor-assay potency score (higher = more potent) at or above it gives 1 (yes).

Would you please look over these solved cases?
TTCATTGGTCTCATTGGGGTCT	1 (yes)
TTGCGTGCTTCCTTGGTCTTAG	0 (no)
TACAGGCTGTGATACATGTGGC	0 (no)
TAAAGTCTTGATGATCTCCTCC	1 (yes)

Task: Given the entry "TGTTTTTGAACACATTCCCCTT" , answer whether its sensor-assay potency score (higher = more potent) meets or surpasses 0.2.
Result: 0 (no)

Task: Subsequent entry: "TTGATGATCTCCTCCTTCTTGG"
Result: 1 (yes)

Task: Note, next up: "ATTGGCTGTACCCTTCCGCTTA"
Result: 0 (no)
